Source: patent EP0555681A1

Tested on: isolated rat hearts
Experiment: Time to contracture during global ischemia in isolated rat hearts, with isobolographic analysis of the combination
Design: species or system Male Sprague-Dawley rats
Conditions: concentration ratio 3:1 cromakalim to zofenopril, cromakalim component, read-out: EC₅₀ for percentage change in time to contracture
pEC50: −log10 of the molar value.

molecule	pEC50
CC1(C)Oc2ccc(C#N)cc2C(N2CCCC2=O)C1O (racemic) [Cromakalim]	5.29

====

Test system: isolated rat hearts
Assay: Time to contracture during global ischemia in isolated rat hearts, with isobolographic analysis of the combination
Design: species or system Male Sprague-Dawley rats
Settings: concentration ratio 3:1 cromakalim to zofenopril, zofenopril component, read-out: EC₅₀ for percentage change in time to contracture
endpoint label: EC50 (nM)

molecule smiles	data value
C[C@H](CSC(=O)c1ccccc1)C(=O)N1C[C@@H](Sc2ccccc2)C[C@H]1C(=O)O	128
